System: CCRIS mutagenicity, Ames/micronucleus/aberration tests
measurement_notes: CCRIS mutagenicity studies
particulars: Test System: AMES SALMONELLA TYPHIMURIUM; Strain/Indicator: TA98; Metabolic Activation: NONE; Method: STANDARD PLATE
Calls of active or inactive are those of the source. The rule behind the calls is not given here.
Field 'call' accepts active, inactive

Please review the entries below; each comes with its answer.
compound: C=CC1(C)CO1 (stereo unspecified)
assigned_class: inactive
--
compound: ClCc1ccc(CCl)cc1
assigned_class: inactive
--
compound: CC(=O)[C@]1(O)Cc2c(O)c3c(c(O)c2[C@@H](O[C@H]2C[C@H](N)[C@H](O)[C@H](C)O2)C1)C(=O)c1ccccc1C3=O
assigned_class: active
--
compound: c1ccc2c(c1)-c1ccccc1C1OC21 (stereo unspecified)
assigned_class: active
--
compound: CC(=O)Oc1ccccc1C(=O)Oc1ccccc1C(=O)O
assigned_class: inactive
--
compound: Oc1cccc2c1ccc1[nH]c3ccc4ccccc4c3c12
assigned_class: active
--
compound: O=C(c1ccccc1)C1OC1c1ccc(-c2ccccc2)cc1 (stereo unspecified)
assigned_class: inactive
--
compound: COc1cccc2c1C(=O)c1c(O)c3c(c(O)c1C2=O)C[C@@](O)(C(C)=O)C[C@@H]3O
assigned_class: active
--
compound: C[C@H]1CCC[C@@]2(C)CCCC[C@]12O
assigned_class: inactive
--
compound: CN1CCN(c2ccc3nc(CCCCCCc4ccc5nc(-c6ccc(N(CCCl)CCCl)cc6)[nH]c5c4)[nH]c3c2)CC1
assigned_class: inactive

Please find the next compound below.
Problem: What was the test verdict on Cc1ccccc1C ?
Result: inactive

====

System: CCRIS mutagenicity, Ames/micronucleus/aberration tests
measurement_notes: CCRIS mutagenicity studies
particulars: Test System: AMES SALMONELLA TYPHIMURIUM; Strain/Indicator: TA100; Metabolic Activation: NONE; Method: PREINCUBATION
Activity calls are given as the source filed them. No rule for the calls is given here.
Respond using exactly one of the listed classes: yes for active, no for inactive

molecule: Oc1c(Br)c(Br)c(Br)c(Br)c1Br
target_under_test: CCRIS mutagenicity, Ames/micronucleus/aberration tests
assigned_class: no
//
molecule: CC1(C)CC(N=C=O)CC(C)(CN=C=O)C1 (stereo not drawn)
target_under_test: CCRIS mutagenicity, Ames/micronucleus/aberration tests
assigned_class: no
//
molecule: CNCCS(=O)(=O)O
target_under_test: CCRIS mutagenicity, Ames/micronucleus/aberration tests
assigned_class: no
//
molecule: CC1(c2ccc(-c3ccccc3)cc2)CO1 (stereo not drawn)
target_under_test: CCRIS mutagenicity, Ames/micronucleus/aberration tests
assigned_class: yes
//
molecule: CCOCCOC(C)=O
target_under_test: CCRIS mutagenicity, Ames/micronucleus/aberration tests
assigned_class: no
//
molecule: CC(CO)(CO)CO
target_under_test: CCRIS mutagenicity, Ames/micronucleus/aberration tests
assigned_class: no
//
molecule: [Cl][Cr]([Cl])[Cl]
target_under_test: CCRIS mutagenicity, Ames/micronucleus/aberration tests
assigned_class: no

As a next step, examine the molecule that follows.
Problem: Please let me know the test result on file for CC(=O)Nc1ccccc1 .
Result: no

====

Tested on: CCRIS mutagenicity, Ames/micronucleus/aberration tests
measurement_notes: CCRIS mutagenicity studies
particulars: Test System: AMES SALMONELLA TYPHIMURIUM; Strain/Indicator: TA98; Metabolic Activation: RAT, LIVER, S-9, PHENOBARBITAL AND 5,6-BENZOFLAVONE; Method: PREINCUBATION
Calls of active or inactive are those of the source. How the calls were made is not given here.
Return exactly one item of active, inactive

Below are worked cases with known answers.
compound: COc1ccc(-c2noc(CC(=O)O)c2-c2ccc(OC)cc2)cc1
assigned_class: inactive
--
compound: O=C(O)C(Br)Br
assigned_class: inactive
--
compound: O=C1OC(O)C(C(Cl)Cl)=C1Cl (stereo unspecified)
assigned_class: inactive
--
compound: O=C1C=CC(=O)C(Cl)=C1
assigned_class: inactive
--
compound: O=C1C=Cc2ccccc2C1=O
assigned_class: inactive

Problem: Please share the test call associated with Cc1c(N)cccc1N=Nc1cccc(N)c1C .
Result: active

Problem: Hi, do you know how Cc1c(F)c(N2CCNC(C)C2)cc2c1c(=O)c(C(=O)O)cn2C1CC1 (stereo unspecified) came out in this test?
Result: inactive

Problem: So what was the verdict on CC(C)Br in this test?
Result: inactive

Problem: // param item: O=C(O)/C=C\C(=O)O ; yields the recorded call
Result: inactive

====

Tested on: CCRIS mutagenicity, Ames/micronucleus/aberration tests
measurement_notes: CCRIS mutagenicity studies
particulars: Test System: Ames Salmonella typhimurium; Strain/Indicator: TA100; Metabolic Activation: Rat, Liver, S-9, Phenobarbital and 5,6-benzoflavone; Method: Preincubation
Calls of active or inactive are those of the source. How the calls were made is not given here.
API: response.call in active, inactive

Consider the worked cases shown below.
compound: CCOC(=O)CC(=O)OCC
assigned_class: inactive
//
compound: Nc1ccc(-c2cc([N+](=O)[O-])c(N)c(Cl)c2Cl)cc1
assigned_class: active
//
compound: O=C1NC(=O)c2ccccc21
assigned_class: inactive
//
compound: CC12C=CC(C1)C1C(=O)OC(=O)C12 (stereo not given)
assigned_class: inactive

From here, focus on the item given below.
Problem: Test call for this compound, please: ClC(Cl)(Cl)c1nc(-c2ccc3c(c2)OCO3)nc(C(Cl)(Cl)Cl)n1
Result: active

====

Test system: CCRIS mutagenicity, Ames/micronucleus/aberration tests
measurement_notes: CCRIS mutagenicity studies
particulars: Test System: CHINESE HAMSTER V-79; Strain/Indicator: V-79/OUABAIN; Metabolic Activation: NONE; Method: STANDARD PLATE
Active and inactive are the calls of the source. The rule behind the calls is not given here.
measurement_kind: mutagenic call

// below: answered compounds
chemical_structure: CCC/C=C/C=O
mutagenic call: inactive; negative
//
chemical_structure: CN(C)CCCNc1c2ccccc2nc2c([N+](=O)[O-])cccc12
mutagenic call: inactive; negative
//
chemical_structure: CCCC/C=C/C=O
mutagenic call: active; positive
//
chemical_structure: COS(C)(=O)=O
mutagenic call: active; positive

Problem: What mutagenic call value was documented for this compound, CC/C=C/C=O ?
Result: inactive; negative

====

System: CCRIS mutagenicity, Ames/micronucleus/aberration tests
measurement_notes: CCRIS mutagenicity studies
particulars: Test System: AMES SALMONELLA TYPHIMURIUM; Strain/Indicator: TA100; Metabolic Activation: RAT, LIVER, S-9; Method: STANDARD PLATE
Active and inactive are the calls of the source. No rule for the calls is given here.
Tick one outcome: yes (1) (active), no (0) (inactive)

compound: Nc1ccccc1
assigned_class: no (0)
--
compound: C=C(C)C1Cc2c(cc(O)c3c(=O)c4ccccc4n(C)c23)O1 (configuration not stated)
assigned_class: yes (1)

Problem: Per the records of this test, what outcome belongs to CCOP(=O)(Oc1ccc([N+](=O)[O-])cc1)c1ccccc1 (configuration not stated) ?
Result: no (0)

Problem: What did this assay record as the result for NC1CCC(N)CC1 (configuration not stated) ?
Result: no (0)

Problem: What did the test return for CCCCOS(=O)(=O)c1ccccc1 ?
Result: yes (1)

Problem: Please share the test call associated with Cl/C=C(\Cl)COCCCl .
Result: no (0)

Problem: Test call for this compound, please: Cn1c2ccccc2c(=O)c2c(O)cc3c(c21)CC(C1(C)CO1)O3 (configuration not stated)
Result: yes (1)

Problem: # outcome recorded in this test, key = CCOP(=O)(NC(C)C)Oc1ccccc1C(=O)OC(C)C (configuration not stated)
Result: no (0)

Problem: How did this test come out for CCC1(CC(=O)O)OCCc2c1[nH]c1c(C(C)O)cccc21 (configuration not stated) ?
Result: no (0)

Problem: Hi, sorry to bother you, what did the test record for CC1(C)COC1=O ?
Result: yes (1)

Problem: Recorded test outcome, item Cc1ccc(N=Nc2c(O)ccc3ccccc23)cc1C
Result: no (0)

Problem: Record request — test call for Cc1cccc(N=Nc2c(O)ccc3ccccc23)c1C
Result: no (0)

====

System: CCRIS mutagenicity, Ames/micronucleus/aberration tests
measurement_notes: CCRIS mutagenicity studies
particulars: Test System: AMES SALMONELLA TYPHIMURIUM; Strain/Indicator: TA1535; Metabolic Activation: NONE; Method: PREINCUBATION
The source made the active and inactive calls. No rule for the calls is given here.
Pick one and only one: true (active), false (inactive)

These recorded examples may help you get a feel for the data.
molecule: CC1(C)COC1=O
target_under_test: CCRIS mutagenicity, Ames/micronucleus/aberration tests
assigned_class: false
--
molecule: O=C(O)c1ccc2c(c1)C(=O)OC2=O
target_under_test: CCRIS mutagenicity, Ames/micronucleus/aberration tests
assigned_class: false
--
molecule: C=C(C)C(=O)OCCCCCCCCCC
target_under_test: CCRIS mutagenicity, Ames/micronucleus/aberration tests
assigned_class: false
--
molecule: CC(=O)Nc1cccc(C)c1
target_under_test: CCRIS mutagenicity, Ames/micronucleus/aberration tests
assigned_class: false
--
molecule: CCN(CC)c1ccccc1
target_under_test: CCRIS mutagenicity, Ames/micronucleus/aberration tests
assigned_class: false
--
molecule: CC(C)Br
target_under_test: CCRIS mutagenicity, Ames/micronucleus/aberration tests
assigned_class: true

Problem: State the result this test recorded for C[n+]1c2ccccc2cc2cc(N)ccc21 .
Result: false

Problem: # outcome recorded in this test, key = CC(C)(c1ccc(O)cc1)c1ccc(O)cc1
Result: false

Problem: In this assay, the call recorded for CNc1ccccc1 was what?
Result: false

Problem: Write down the call the test reported for this molecule. Item: [Cl][Hg][Cl]
Result: false

Problem: I would be grateful if you could indicate the recorded call for CCCCOC(=O)c1ccc(N)cc1 .
Result: false

Problem: What was the test verdict on O=[N+]([O-])CCO ?
Result: false

Problem: Which result was noted for this molecule in the test: O=S(=O)(O)c1ccccc1
Result: false

Problem: Hi, sorry to bother you, what did the test record for C=CC(C)C#N (stereo not given) ?
Result: false

Problem: Name the outcome recorded for O=S(=O)(c1ccc(O)cc1)c1ccc(O)cc1 in the assay.
Result: false

Problem: How was CCN(CC)c1cccc(O)c1 classified in this test?
Result: false

Problem: # lookup: test call for O[C@H]1[C@H]2O[C@H]2C=C[C@@H]1O
Result: true

Problem: Name the outcome recorded for Oc1cccc(Nc2ccccc2)c1 in the assay.
Result: false

Problem: Record lookup: outcome of this test for COc1cc(-c2ccc(N/N=C3\C=C(S(=O)(=O)O)c4ccccc4C3=O)c(OC)c2)ccc1N=Nc1cc(S(=O)(=O)O)c2ccccc2c1N ?
Result: false

Problem: What call does the record list for C1CCCNCC1 ?
Result: false

Problem: Which outcome was entered for the molecule CCC[C@]1(O)CC[C@H]2[C@@H]3CC[C@H]4CC(=O)C[C@H](C)[C@]4(C)[C@H]3CC[C@@]21C in this test?
Result: false

Problem: Assay outcome for Cc1cc(O)c(C(C)(C)C)cc1Sc1cc(C(C)(C)C)c(O)cc1C : what was it?
Result: false

Problem: Check the results log: what was the call for CN(C)P(=O)(N(C)C)N(C)C ?
Result: false

Problem: Answer briefly: the call reported for CCCCC(CC)CNCC(CC)CCCC (stereo not given) in this assay.
Result: false

Problem: Which outcome was entered for the molecule OCCOCCOCCO in this test?
Result: false

Problem: How did this test come out for C=CCNC(N)=S ?
Result: false

Problem: Write down the call the test reported for this molecule. Item: CC(=O)Nc1ccccc1
Result: false

Problem: For COP(=S)(OC)SCn1nnc2ccccc2c1=O , which call appears in the assay record?
Result: false

Problem: GET /call?item= O.[Al+3].[Al+3].[Na+].[Na+].[O-2].[O-2].[O-2].[O-2].[O-2].[O-2].[Si+4] returns the recorded outcome of this test.
Result: false

Problem: I would be grateful if you could indicate the recorded call for CCN(C(=O)N(CC)c1ccccc1)c1ccccc1 .
Result: false
